Assay: growth inhibition of WT strain, primary screen, mitochondrial fusion inhibitor project, WT and mutant strains, chemical genetic (AID 1362)
Conditions: mitochondrial fusion phenotypic screen, mutant strain inhibition; at 10 µM
Out of some 190,000 compounds screened, about 4,000 (2.1%) were called active. For the sample, actives were picked, then their nearest neighbours and some compounds at random.
OBSERVED_PROPERTY: inhibition (%)

1. O=[N+]([O-])c1ccc(Sc2n[nH]c(-c3ccco3)n2)nc1 = -1.1
2. CCCNC(=O)CN(Cc1ccccc1F)S(=O)(=O)c1ccc(C)cc1 = -40.4
3. O=c1cc(N2CCN(Cc3ccccc3)CC2)c(-c2ccccc2)n[nH]1 = -10.6
4. S=C(c1ccc(-c2ccccc2)o1)N1CCCCC1 = 35.3
5. Cc1cccc(NC(=S)NCc2ccc3[nH]c4c(c3c2)CCCC4)c1 = 51.7
6. COC(=O)Cc1ccc(N(Cc2ccccc2F)S(=O)(=O)c2ccc(Br)cc2)cc1 = 64.6
7. O=C(O)CCC(=O)NCc1ccc2[nH]c3c(c2c1)CCCC3 = 10.2
8. Cc1ccc(Cl)c(NC(=O)CN2CCN(C=O)CC2)c1 = 12.5
9. O=c1c2ccccc2c(-c2ccccc2)nn1Cc1ccccc1 = -0.27
10. Cc1cc(Nc2ccccc2)n(C(=O)c2ccc(N)cc2)n1 = 32.9
11. Cc1cccc(NC(=S)NCCN(C2CCCCC2)C2CCCC2)c1 = -17.7
12. Cc1ccc(Nc2ccccc2N)cc1 = 33.4

Hello, the source for this data is PubChem BioAssay AID1362, in case you need it.
